Assay: Phase 1 drug-drug interaction study: omaveloxolone alone and with itraconazole in healthy subjects
Conditions: both, human, plasma, oral, 150 mg, tmax, median, Reference: 150 mg omaveloxolone alone, n = 15, Wilcoxon signed rank analysis
assay_endpoint: Tmax (h)
Give just the numeric value; h need not be written.

Given the compound CC1(C)CC[C@]2(NC(=O)C(C)(F)F)CC[C@]3(C)[C@H](C(=O)C=C4[C@@]5(C)C=C(C#N)C(=O)C(C)(C)[C@@H]5CC[C@]43C)[C@@H]2C1 , write its reported Tmax.
8

###

Assay: Drug-drug interaction study: bardoxolone methyl alone and with itraconazole in healthy volunteers
Settings: human, plasma, oral, Cmax, Mean, Period 2: single 10 mg bardoxolone methyl with daily 200 mg itraconazole, plasma, n = 15
assay_endpoint: Cmax
A bare number is not enough; add the unit after it.

Given the compound COC(=O)[C@]12CCC(C)(C)C[C@H]1[C@H]1C(=O)C=C3[C@@]4(C)C=C(C#N)C(=O)C(C)(C)[C@@H]4CC[C@@]3(C)[C@]1(C)CC2 [Bardoxolone methyl] , write its reported Cmax.
17.3 ng/mL

###

Test: Drug-drug interaction study: bardoxolone methyl alone and with itraconazole in healthy volunteers
Settings: human, plasma, oral, 10 mg, AUC0-∞, Geom. Mean, Bardoxolone Methyl Alone (A), paired analysis n = 15
assay_endpoint: AUC(0-inf)
A bare number is not enough; add the unit after it.

Given the compound COC(=O)[C@]12CCC(C)(C)C[C@H]1[C@H]1C(=O)C=C3[C@@]4(C)C=C(C#N)C(=O)C(C)(C)[C@@H]4CC[C@@]3(C)[C@]1(C)CC2 , write its reported AUC(0-inf).
27.6 ng·h/mL

###

Assay: Drug-drug interaction study: bardoxolone methyl alone and with itraconazole in healthy volunteers
Details: human, plasma, oral, 10 mg, AUC0-t, Geom. Mean, Bardoxolone Methyl Alone (A), paired analysis n = 15
assay_endpoint: AUC(0-t) (ng·h/mL)
Give just the numeric value; ng·h/mL need not be written.

Given the compound COC(=O)[C@]12CCC(C)(C)C[C@H]1[C@H]1C(=O)C=C3[C@@]4(C)C=C(C#N)C(=O)C(C)(C)[C@@H]4CC[C@@]3(C)[C@]1(C)CC2 [Bardoxolone methyl] , write its reported AUC(0-t).
25.8

###

Experiment: Drug-drug interaction study: bardoxolone methyl alone and with itraconazole in healthy volunteers
Settings: human, plasma, po, 10 mg, t½, Median, Period 1: single oral 10 mg bardoxolone methyl alone, fasted, plasma, n = 16
assay_endpoint: half-life

Given the compound COC(=O)[C@]12CCC(C)(C)C[C@H]1[C@H]1C(=O)C=C3[C@@]4(C)C=C(C#N)C(=O)C(C)(C)[C@@H]4CC[C@@]3(C)[C@]1(C)CC2 , write its reported half-life.
20.3 h

###

Assay: clinical
Details: human, in vivo, po
assay_endpoint: half-life

Given the compound COC(=O)[C@]12CCC(C)(C)C[C@H]1[C@H]1C(=O)C=C3[C@@]4(C)C=C(C#N)C(=O)C(C)(C)[C@@H]4CC[C@@]3(C)[C@]1(C)CC2 [Bardoxolone methyl] , write its reported half-life.
48 to 60 h

###

Test: Drug-drug interaction study: bardoxolone methyl alone and with itraconazole in healthy volunteers
Conditions: human, plasma, oral, AUC0-t, GM, Period 2: single 10 mg bardoxolone methyl with daily 200 mg itraconazole, plasma, n = 15
assay_endpoint: AUC(0-t) (ng·h/mL)
Give just the numeric value; ng·h/mL need not be written.

Given the compound COC(=O)[C@]12CCC(C)(C)C[C@H]1[C@H]1C(=O)C=C3[C@@]4(C)C=C(C#N)C(=O)C(C)(C)[C@@H]4CC[C@@]3(C)[C@]1(C)CC2 [Bardoxolone methyl] , write its reported AUC(0-t).
220

###

Assay: Drug-drug interaction study: bardoxolone methyl alone and with itraconazole in healthy volunteers
Details: human, plasma, po, 10 mg, tmax, Mean, Period 1: single oral 10 mg bardoxolone methyl alone, fasted, plasma, n = 16
assay_endpoint: Tmax (h)
Give just the numeric value; h need not be written.

Given the molecule COC(=O)[C@]12CCC(C)(C)C[C@H]1[C@H]1C(=O)C=C3[C@@]4(C)C=C(C#N)C(=O)C(C)(C)[C@@H]4CC[C@@]3(C)[C@]1(C)CC2 , write its reported Tmax.
2.9

###

Assay: Drug-drug interaction study: bardoxolone methyl alone and with itraconazole in healthy volunteers
Details: human, plasma, oral, 10 mg, Mean t1/2, 10 mg single dose, alone
assay_endpoint: half-life (h)
Give just the numeric value; h need not be written.

Given the molecule COC(=O)[C@]12CCC(C)(C)C[C@H]1[C@H]1C(=O)C=C3[C@@]4(C)C=C(C#N)C(=O)C(C)(C)[C@@H]4CC[C@@]3(C)[C@]1(C)CC2 , write its reported half-life.
19.8

###

Experiment: Drug-drug interaction study: bardoxolone methyl alone and with itraconazole in healthy volunteers
Settings: human, plasma, po, 10 mg, AUC0-t, GM, Period 1: single oral 10 mg bardoxolone methyl alone, fasted, plasma, n = 16
assay_endpoint: AUC(0-t)
A bare number is not enough; add the unit after it.

Given the molecule COC(=O)[C@]12CCC(C)(C)C[C@H]1[C@H]1C(=O)C=C3[C@@]4(C)C=C(C#N)C(=O)C(C)(C)[C@@H]4CC[C@@]3(C)[C@]1(C)CC2 , write its reported AUC(0-t).
26.1 ng·h/mL

###

Test: Drug-drug interaction study: bardoxolone methyl alone and with itraconazole in healthy volunteers
Conditions: human, plasma, po, 10 mg, AUC0-t, Mean, Period 1: single oral 10 mg bardoxolone methyl alone, fasted, plasma, n = 16
assay_endpoint: AUC(0-t) (ng·h/mL)
Give just the numeric value; ng·h/mL need not be written.

Given the molecule COC(=O)[C@]12CCC(C)(C)C[C@H]1[C@H]1C(=O)C=C3[C@@]4(C)C=C(C#N)C(=O)C(C)(C)[C@@H]4CC[C@@]3(C)[C@]1(C)CC2 , write its reported AUC(0-t).
29.3

###

Test: Drug-drug interaction study: bardoxolone methyl alone and with itraconazole in healthy volunteers
Conditions: human, plasma, po, 10 mg, Vz/F, Mean, Period 1: single oral 10 mg bardoxolone methyl alone, fasted, plasma, n = 16
assay_endpoint: Vd/F
A bare number is not enough; add the unit after it.

Given the molecule COC(=O)[C@]12CCC(C)(C)C[C@H]1[C@H]1C(=O)C=C3[C@@]4(C)C=C(C#N)C(=O)C(C)(C)[C@@H]4CC[C@@]3(C)[C@]1(C)CC2 , write its reported Vd/F.
10200 L

###

Experiment: Phase 1 drug-drug interaction study: omaveloxolone alone and with itraconazole in healthy subjects
Settings: both, human, plasma, oral, 150 mg
assay_endpoint: half-life (h)
Give just the numeric value; h need not be written.

Given the molecule CC1(C)CC[C@]2(NC(=O)C(C)(F)F)CC[C@]3(C)[C@H](C(=O)C=C4[C@@]5(C)C=C(C#N)C(=O)C(C)(C)[C@@H]5CC[C@]43C)[C@@H]2C1 , write its reported half-life.
89.8

###

Assay: Drug-drug interaction study: bardoxolone methyl alone and with itraconazole in healthy volunteers
Conditions: human, plasma, oral, tmax, Mean, Period 2: single 10 mg bardoxolone methyl with daily 200 mg itraconazole, plasma, n = 15
assay_endpoint: Tmax (h)
Give just the numeric value; h need not be written.

Given the compound COC(=O)[C@]12CCC(C)(C)C[C@H]1[C@H]1C(=O)C=C3[C@@]4(C)C=C(C#N)C(=O)C(C)(C)[C@@H]4CC[C@@]3(C)[C@]1(C)CC2 , write its reported Tmax.
3.1

###

Test: Phase 1 drug-drug interaction study: omaveloxolone alone and with itraconazole in healthy subjects
Conditions: both, human, plasma, oral, tmax, median, Test: 200 mg itraconazole QD + 150 mg omaveloxolone, n = 13, Wilcoxon signed rank analysis
assay_endpoint: Tmax (h)
Give just the numeric value; h need not be written.

Given the compound CC1(C)CC[C@]2(NC(=O)C(C)(F)F)CC[C@]3(C)[C@H](C(=O)C=C4[C@@]5(C)C=C(C#N)C(=O)C(C)(C)[C@@H]5CC[C@]43C)[C@@H]2C1 [Omaveloxolone] , write its reported Tmax.
6

###

Experiment: Drug-drug interaction study: bardoxolone methyl alone and with itraconazole in healthy volunteers
Settings: human, plasma, oral, AUC0-∞, Mean, Period 2: single 10 mg bardoxolone methyl with daily 200 mg itraconazole, plasma, n = 15
assay_endpoint: AUC(0-inf) (ng·h/mL)
Give just the numeric value; ng·h/mL need not be written.

Given the compound COC(=O)[C@]12CCC(C)(C)C[C@H]1[C@H]1C(=O)C=C3[C@@]4(C)C=C(C#N)C(=O)C(C)(C)[C@@H]4CC[C@@]3(C)[C@]1(C)CC2 , write its reported AUC(0-inf).
248

###

Assay: Drug-drug interaction study: bardoxolone methyl alone and with itraconazole in healthy volunteers
Conditions: human, plasma, oral, AUC0-t, Mean, Period 2: single 10 mg bardoxolone methyl with daily 200 mg itraconazole, plasma, n = 15
assay_endpoint: AUC(0-t) (ng·h/mL)
Give just the numeric value; ng·h/mL need not be written.

Given the compound COC(=O)[C@]12CCC(C)(C)C[C@H]1[C@H]1C(=O)C=C3[C@@]4(C)C=C(C#N)C(=O)C(C)(C)[C@@H]4CC[C@@]3(C)[C@]1(C)CC2 [Bardoxolone methyl] , write its reported AUC(0-t).
226
